The measured values listed here are drawn from patent US20220362253A1.

Assay: Solubility in 20 mM acetic, citric and L-aspartic aqueous media as a function of pH (Example 14)
Format: physicochemical
Settings: 20 mM L-aspartic acid aqueous media, 22 °C, aqueous buffer, thermodynamic from solid; 20 mM L-aspartic acid media, pH 8.87, 22 ± 1° C., Compound A in excess; read-out: Solubility
quantity: solubility (µg/mL)
Provide the reading as a plain figure in µg/mL.

[in] Find the recorded solubility belonging to CCn1nc(C)cc1C(=O)Nc1nc2cc(C(N)=O)cc(OC)c2n1C/C=C/Cn1c(NC(=O)c2cc(C)nn2CC)nc2cc(C(N)=O)cc(OCCCN3CCOCC3)c21 and report it.
[out] 0.9
